Entry source: PubChem BioAssay AID1626

- Assay Comment: M. tuberculosis H37Rv growth inhibitors, H37Rv strain (AID 1626);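 also: bacteria incubated seven days before Alamar blue readout; 0% = bacteria only wells and 100% = bacteria with antibiotic wells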
- Experimental Context: active compounds read high, concentration not given here
In all, about 220,000 compounds went through this assay and about 2,000 (0.91%) were called active. Inconclusive results (about 2%) are left out. The list is a sample of the results. Potency and affinity values are given separately.
Quantity: inhibition (%)
Just the number please, in %, no unit attached.

Worked examples, 5 molecules total:
* CC(C)(C)c1nn(-c2ccccc2)c2[nH]c(=O)c(CNc3ccc4c(c3)OCCO4)cc12 | 4.42
* Cc1cccn2cc(-c3ccc(S(=O)(=O)N4CCCCC4)cc3)nc12 | 0.16
* CCN(CC)S(=O)(=O)c1ccc(C)c(NC(=O)Cn2cnc3cc([N+](=O)[O-])ccc3c2=O)c1 | -5.31
* CCOC(=O)/C=C(\C)N1N=C(c2ccccc2)CC1c1ccccc1 (stereo not given) | 33.1
* O=C(OCC(=O)c1ccc[nH]1)c1ccc(S(=O)(=O)N2CCCCC2)cc1 | -10.2

Short answer for CC(C)c1nnc(NC(=O)CSc2nnc(-c3ccco3)o2)s1 : inhibition was -0.02

###

Collected inhibition values appear next to each entry.
- Assay Comment: M. tuberculosis H37Rv growth inhibitors, H37Rv strain (AID 1626)
- Experimental Context: active compounds read high, concentration not given here
The campaign covered roughly 220,000 compounds. About 2,000 (0.91%) were called active. Not shown: some 2% with an inconclusive outcome. The list is a sample of the results. Measured potencies and affinities stand elsewhere.
Just the number please, in %, no unit attached.

Worked examples, 5 molecules total:
- CCOP(=O)(OCC)C(Nc1cc(Cl)cc(Cl)c1)c1cccc(O)c1 (stereo unspecified): 1.6
- CC1CCC2(CC1)OCC1(CCC3(COC4(CCC(C)CC4)OC3)C1=O)CO2 (stereo unspecified): -1.15
- Cc1ccc(S(=O)(=O)NC(CC(C)C)C(=O)Nc2nccs2)cc1 (stereo unspecified): -11.9
- C=CCNC(=O)NC(=O)CSc1nnc(C(F)(F)F)n1C: -4.51
- COc1ccc(-c2cc(C(=O)OC3CCOC3=O)c3ccccc3n2)cc1OC (stereo unspecified): -3.98

Consider now this further molecule.
Short answer for Cc1ccc(Cl)cc1-c1ccc(C=Nc2ccc(N3CCOCC3)cc2)o1 : inhibition was 9.51

###

- Assay Comment: M. tuberculosis H37Rv growth inhibitors, H37Rv strain (AID 1626)
- Experimental Context: active compounds read high, concentration not given here
Among all 220,000 compounds or so, about 2,000 (0.91%) were called active. About 2% were inconclusive and are not listed. Only a sample is shown. Measured potencies and affinities stand elsewhere.
Quantity: inhibition (%)
Just the number please, in %, no unit attached.

Worked examples, 2 compounds total:
• CC(=O)Nc1sc(N/N=C\c2cccc(Cl)c2)nc1-c1cccs1 = 54.5
• CCN(CC)C(=O)CSc1nnc2nnc3cc(OC)ccc3n12 = 44

Short answer for CC(=O)NCCn1c(SCC(=O)c2ccc(Cl)cc2)nc2ccccc2c1=O : inhibition was -2.5

Short answer for Fc1ccc(-c2cc3nc(-c4ccccc4)cc(N4CCOCC4)n3n2)cc1 : inhibition was 1.89

Short answer for Cn1c(CNc2ccccc2)nc2ccccc21 : inhibition was 5.08

Short answer for O=C(NCCN1CCOCC1)c1ccc2c(c1)N(Cc1cccc(F)c1)C(=O)c1ccccc1S2 : inhibition was 2.5

Short answer for CCOC(=O)CNC(=O)CSc1nnc(-c2cccc(C)c2)n1-c1ccc(OC)cc1 : inhibition was 3.71

###

Collected inhibition values appear next to each entry.
- Assay Comment: M. tuberculosis H37Rv growth inhibitors, H37Rv strain (AID 1626)
- Experimental Context: active compounds read high, concentration not given here
In all, about 220,000 compounds went through this assay and about 2,000 (0.91%) were called active. Roughly 2% stayed inconclusive and do not appear here. The list is a sample of the results. Results with a measured potency or affinity are listed apart.

Worked examples, 3 compounds total:
* CCC1CSC(Nc2ccc(C(=O)/C=C/c3ccc(OC)c(OC)c3)cc2)=N1 (centres undefined) | 44.8% (inactive)
* CCN(CC)CCN(C(=O)c1ccc(Br)s1)c1nc2cc3c(cc2s1)OCO3 | 4.27% (inactive)
* COc1cccc(C2C(C(=O)c3cc4cccc(OC)c4o3)=C(O)C(=O)N2c2cc(C)on2)c1OC (centres undefined) | -9.58% (inactive)

Short answer for Cc1cccc(OCc2nnc(SCc3cc(=O)[nH]c4ccccc34)n2-c2ccccc2)c1 : inhibition was 4.6% (inactive)

Short answer for COc1ccc(OC)c(S(=O)(=O)N2Cc3ccccc3CC2C(=O)O)c1 (centres undefined) : inhibition was -11.6% (inactive)

Short answer for Cc1ccccc1-c1ccc(/C=C2/SC(N3CCOCC3)=NC2=O)o1 : inhibition was -0.65% (inactive)

Short answer for O=C(c1ccc2c(c1)OCCO2)C1CCN(C(=O)c2ccc(F)c(F)c2)CC1 : inhibition was 5.15% (inactive)

Short answer for Cc1ccc(S(N)(=O)=O)c(C)c1N1CCCC1=O : inhibition was -3.84% (inactive)

Short answer for CSc1ccccc1C(=O)C1CCCN(Cc2cnn(-c3ccccc3)c2)C1 (centres undefined) : inhibition was 0.775% (inactive)

###

- Assay Comment: M. tuberculosis H37Rv growth inhibitors, H37Rv strain (AID 1626);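 also: bacteria incubated seven days before Alamar blue readout; 0% = bacteria only wells and 100% = bacteria with antibiotic wells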
- Experimental Context: active compounds read high, concentration not given here
In all, about 220,000 compounds went through this assay and about 2,000 (0.91%) were called active. Inconclusive results (about 2%) are left out. A selection follows. Potency and affinity values are given separately.
Collected inhibition values appear next to each entry.
Just the number please, in %, no unit attached.

Worked examples, 8 molecules total:
• O=C(N/N=C/c1ccccn1)C(=O)N1CCCCCC1 = -1.83
• O=C(CN(C(=O)c1ccccc1Cl)C1CCCCC1)Nc1ccc(Cl)c([N+](=O)[O-])c1 = -3.85
• CC(C)c1ccc(NC(=S)NC2CCCCCC2)cc1 = -13.8
• Cc1ccc2cc(CCNC(=O)c3cccc([N+](=O)[O-])c3)c(=O)[nH]c2c1 = 2
• CC(C)CNC(=O)NC1C(NC(=O)NCC(C)C)N(C)C(=O)N1C (stereo not drawn) = -2.11
• Cc1ccc(C2C(C#N)=C(N)Oc3n[nH]c(C)c32)cc1 (stereo not drawn) = -5.8
• O=C(Nc1ccc(Cl)cc1)NC1CCCCC1 = -3.67
• CC(NC(=O)COC(=O)C1CSC2(C)CCC(=O)N12)C12CC3CC(CC(C3)C1)C2 (stereo not drawn) = -1.31

Short answer for CCOC(=O)N1CCN(C(=O)CCCn2c(=O)[nH]c3ccccc3c2=O)CC1 : inhibition was 1.26

Short answer for O=C(COc1ccc(Br)cc1Br)NC(=O)NC1CCCC1 : inhibition was 3.86

Short answer for Cc1ccc(N2C(=O)NC(=O)/C(=C/c3cnn(-c4ccc(C)cc4)c3)C2=O)cc1 : inhibition was 79.9

Short answer for Cc1ccc(-n2ncc3c(SCC(=O)Nc4cc(C)on4)ncnc32)c(C)c1 : inhibition was 0.2

###

- Assay Comment: M. tuberculosis H37Rv growth inhibitors, H37Rv strain (AID 1626);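 also: bacteria incubated seven days before Alamar blue readout; 0% = bacteria only wells and 100% = bacteria with antibiotic wells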
- Experimental Context: active compounds read high, concentration not given here
In all, about 220,000 compounds went through this assay and about 2,000 (0.91%) were called active. Not shown: some 2% with an inconclusive outcome. Only a sample is shown. Measured potencies and affinities stand elsewhere.
Quantity: inhibition (%)
Just the number please, in %, no unit attached.

Worked examples, 8 compounds total:
- Cc1cc(N2CCN(C)CC2)nc(-c2ccccc2O)n1: -1.49
- O=C(Nc1nc2ccc(F)cc2s1)c1cccs1: -2.98
- Cc1ccc(-n2[nH]c(C)c(C=Nc3ccc(S(=O)(=O)Nc4nccs4)cc3)c2=O)c(C)c1: 45.6
- O=C(NNc1nc2c(F)cc(F)cc2s1)c1ccccc1: 6.46
- CCc1cc2cc3c(cc2nc1SCC(=O)Nc1nnc(C)s1)OCCO3: -4.07
- CCc1nnc(NS(=O)(=O)c2ccc(N=Cc3c(C)[nH]n(-c4ccc(Cl)cc4)c3=O)cc2)s1: 12.1
- CN(C)c1ccc(N=Nc2ccccc2C(=O)OCC(=O)N(C)C2CCCCC2)cc1: 27.3
- O=C(COC(=O)c1cc(-c2ccccc2)nc2ccccc12)Nc1ccc2c(c1)OCO2: -6.74

Short answer for CC(C)(C)NC(=O)C1CCC(CNc2c(N3CCCCC3)c(=O)c2=O)CC1 (stereo unspecified) : inhibition was -2.67

Short answer for O=C(CCc1ccccc1)Nc1nc2c(F)cc(F)cc2s1 : inhibition was 12.2

Short answer for Cc1cc(C)c(S(=O)(=O)N(C)CC(=O)NCc2ccccn2)c(C)c1 : inhibition was -8.63

###

- Assay Comment: M. tuberculosis H37Rv growth inhibitors, H37Rv strain (AID 1626);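 also: bacteria incubated seven days before Alamar blue readout; 0% = bacteria only wells and 100% = bacteria with antibiotic wells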
- Experimental Context: active compounds read high, concentration not given here
The campaign covered roughly 220,000 compounds. About 2,000 (0.91%) were called active. About 2% were inconclusive and are not listed. The list is a sample of the results. Entries with a potency or affinity are not part of this list.
Quantity: inhibition (%)
Just the number please, in %, no unit attached.

Worked examples, 4 compounds total:
- CC1CCC(C(C)C)C(OC(=O)COC(=O)c2cccn2C)C1 (stereo unspecified): -6.06
- O=C(CSc1nc2ccc([N+](=O)[O-])cc2[nH]1)c1ccc2ccccc2c1: 13.4
- CSc1ccc(CN(C)Cc2nc3ccccc3c(=O)[nH]2)cc1: -5.14
- COc1ccc(Cn2c(C(C)C)nc3sc4ccccc4c(=O)c3c2=O)cc1: 17.7

Short answer for O=C(NCc1ccc(Cl)cc1)C(=O)Nc1nccs1 : inhibition was 1.96

Short answer for O=C(CN1C(=O)c2ccccc2C1=O)Nc1cccc2cccnc12 : inhibition was 7.46

Short answer for CS/C(=C\[N+](=O)[O-])Nc1ccc(F)cc1 : inhibition was 3.42

Short answer for CCN(CC)c1ccc(C(=O)OCC(=O)Nc2ccc3[nH]c(=O)[nH]c3c2)cc1 : inhibition was 6.23

Short answer for NNc1nc2ccc(Cl)cc2s1 : inhibition was 52.6

Short answer for Cc1cccc(-c2nnc(SCC#N)n2C)c1 : inhibition was 1.96

Short answer for O=C(OCc1ccc([N+](=O)[O-])cc1)c1ccc2ccccc2n1 : inhibition was 40.4
